System: wrinkles of the outer corners of the eyes
PROTOCOL_DETAILS: Test of wrinkle improvement effect (skin replica shadow image analysis after 8 weeks of application)
Assay type: in vivo, women
CONDITION_NOTES: cosmetic of Table 1 with 1% by mass compound; applied to outer corners of the eyes twice a day for 8 weeks; average of group of 5 women (40 to 60 years old)
Protocol: The cosmetics (Examples 1-7, Comparative Example, and Reference Examples) according to Table 1 were prepared respectively in a conventional manner. With regard to each of the prepared cosmetics, the wrinkle improvement effect was evaluated by the following method. […] Then the area rate of the shadow portion (portion with the brightness 0) was measured and the wrinkle improvement rate was calculated based on the following expression. […]
Structures can show the parent of a compound that is named as a salt.
# cutoff 8% applies to Wrinkle improvement Improvement rate (%); >= gives Condition met, < gives Condition not met

Known results for molecules:
{"MOLECULE": "CCCCCC(=O)OCC(C)Cc1ccc(C(=O)C2CCC(CN)CC2)cc1 (centres unmarked)", "MEASURED_TARGET": "wrinkles of the outer corners of the eyes", "LABEL_VALUE": "Condition not met"}
{"MOLECULE": "NCC1CCC(C(=O)c2ccc(CCC(=O)O)cc2)CC1 (centres unmarked) [Compound 1]", "MEASURED_TARGET": "wrinkles of the outer corners of the eyes", "LABEL_VALUE": "Condition met"}
{"MOLECULE": "CNC(=O)[C@H]1CC[C@H](CN)CC1.Cl [reference compound]", "MEASURED_TARGET": "wrinkles of the outer corners of the eyes", "LABEL_VALUE": "Condition not met"}
{"MOLECULE": "CCCCCC(=O)OCCCc1ccc(C(=O)C2CCC(CN)CC2)cc1 (centres unmarked)", "MEASURED_TARGET": "wrinkles of the outer corners of the eyes", "LABEL_VALUE": "Condition met"}
{"MOLECULE": "NC[C@H]1CC[C@H](C(=O)O)CC1 [Tranexamic acid, reference compound]", "MEASURED_TARGET": "wrinkles of the outer corners of the eyes", "LABEL_VALUE": "Condition not met"}
{"MOLECULE": "NCC1CCC(C(=O)c2ccc(CCC(=O)O)cc2)CC1 (centres unmarked) [Hydrochloride salt of Compound 1]", "MEASURED_TARGET": "wrinkles of the outer corners of the eyes", "LABEL_VALUE": "Condition met"}

Now let's try a different one.
Challenge: Is the recorded value of Wrinkle improvement Improvement rate (%) equal to or greater than 8% for this molecule? NCC1CCC(C(=O)c2ccc(CCCO)cc2)CC1 (centres unmarked)
Response given: Condition met
